- measured.target: CDK12 (Homo sapiens, UniProt Q9NYV4)
- Sequence (Q9NYV4 whole entry): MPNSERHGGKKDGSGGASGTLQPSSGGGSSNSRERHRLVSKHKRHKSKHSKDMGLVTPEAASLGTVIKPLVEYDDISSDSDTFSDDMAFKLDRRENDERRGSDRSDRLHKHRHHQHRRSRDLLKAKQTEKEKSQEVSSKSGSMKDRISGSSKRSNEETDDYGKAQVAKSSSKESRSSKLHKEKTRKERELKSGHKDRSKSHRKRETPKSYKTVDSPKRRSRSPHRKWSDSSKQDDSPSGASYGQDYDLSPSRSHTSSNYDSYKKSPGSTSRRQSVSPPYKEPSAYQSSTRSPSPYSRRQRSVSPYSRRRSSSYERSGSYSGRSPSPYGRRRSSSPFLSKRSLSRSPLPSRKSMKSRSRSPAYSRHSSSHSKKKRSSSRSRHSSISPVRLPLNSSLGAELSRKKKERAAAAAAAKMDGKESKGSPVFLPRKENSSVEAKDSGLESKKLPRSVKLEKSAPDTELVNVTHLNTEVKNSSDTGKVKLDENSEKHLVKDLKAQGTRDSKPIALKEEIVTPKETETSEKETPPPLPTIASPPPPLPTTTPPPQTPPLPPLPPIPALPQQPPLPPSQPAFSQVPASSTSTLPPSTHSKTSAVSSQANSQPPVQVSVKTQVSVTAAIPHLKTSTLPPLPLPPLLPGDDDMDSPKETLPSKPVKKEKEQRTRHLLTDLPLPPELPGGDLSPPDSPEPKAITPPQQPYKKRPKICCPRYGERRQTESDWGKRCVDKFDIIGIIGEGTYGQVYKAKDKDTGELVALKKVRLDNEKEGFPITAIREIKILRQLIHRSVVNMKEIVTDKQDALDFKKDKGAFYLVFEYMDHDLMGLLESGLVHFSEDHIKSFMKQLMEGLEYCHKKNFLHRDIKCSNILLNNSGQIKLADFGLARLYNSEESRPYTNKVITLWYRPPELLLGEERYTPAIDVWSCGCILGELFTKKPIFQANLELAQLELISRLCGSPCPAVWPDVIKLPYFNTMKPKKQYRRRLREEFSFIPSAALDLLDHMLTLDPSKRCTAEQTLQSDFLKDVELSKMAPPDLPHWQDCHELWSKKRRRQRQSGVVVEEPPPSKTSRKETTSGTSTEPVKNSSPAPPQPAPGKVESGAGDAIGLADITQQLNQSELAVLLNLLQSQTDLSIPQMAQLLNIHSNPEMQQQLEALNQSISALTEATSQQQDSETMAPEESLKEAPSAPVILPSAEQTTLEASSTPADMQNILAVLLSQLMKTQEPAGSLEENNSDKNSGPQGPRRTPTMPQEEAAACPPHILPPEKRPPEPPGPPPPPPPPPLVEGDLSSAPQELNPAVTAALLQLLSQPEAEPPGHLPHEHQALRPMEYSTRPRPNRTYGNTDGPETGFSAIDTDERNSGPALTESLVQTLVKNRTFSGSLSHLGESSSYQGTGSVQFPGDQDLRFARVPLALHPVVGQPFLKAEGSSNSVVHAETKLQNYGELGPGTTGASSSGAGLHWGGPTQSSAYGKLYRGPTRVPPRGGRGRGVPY
So basically: is Kd under 0.09 µM? Then 1. Not under? Then -1.

Previously resolved entries follow.
> print(dat)
                                   molecule  class.name
1  OCCC1CCCCN1c1cc(NCc2ccccc2)n2ncc(Br)c2n1 (centres unmarked)           1
2  OCCC1CCCCN1c1cc(NCc2ccc(C3=CCOCC3)cc2)n2ncc(Br)c2n1 (centres unmarked)           1
3  O=C(NCc1ccc(-c2ccccn2)cc1)c1n[nH]cc1NC(=O)c1c(Cl)cccc1Cl          -1
4  CC[C@H](CO)Nc1nc(NCc2ccc(-c3ccco3)cc2)c2ncn(C(C)C)c2n1          -1
5  CC[C@H](CO)Nc1nc(NCc2ccc(-c3cc(=O)cc[nH]3)cc2)c2ncn(C(C)C)c2n1           1
6  OCCC1CCCCN1c1cc(NCc2ccc(-c3ccccn3)cc2)n2ncc(Br)c2n1 (centres unmarked)           1

Problem: Hi there! Is Kd for `O=C(NCc1ccccc1)c1n[nH]cc1NC(=O)c1c(Cl)cccc1Cl` below 0.09 µM, do you know?
Solution: -1

Problem: `O=C(NCc1ccc(C2=CCOCC2)cc1)c1n[nH]cc1NC(=O)c1c(Cl)cccc1Cl` , same question.
Solution: -1
